Data credit: patent US5840728A

Parameter: SI (CC50/EC50). Scope: all listed entries.
- Test system: HSV-2 (herpes simplex type 2)
- protocolDescription: microbe, parasite or virus in culture
readoutName: SI (CC50/EC50)

> print(dat)
                                   compound             targetortestsystem  recordedvalue
1  Nc1ncnc2c1ncn2[C@H]1C[C@H](O)[C@]2(CO)C[C@H]12 [Compound 4]  HSV-2 (herpes simplex type 2)          > 7.2
2  Nc1nc2c(ncn2[C@@]23C[C@H](O)[C@@H](CO)[C@@H]2C3)c(=O)[nH]1 [(S)-DMC-G, reference compound]  HSV-2 (herpes simplex type 2)          < 3.7
3  Cc1cn([C@H]2C[C@H](O)[C@]3(CO)C[C@H]23)c(=O)[nH]c1=O [Compound 20]  HSV-2 (herpes simplex type 2)          > 167
4  O=c1ccn([C@H]2C[C@H](O)[C@]3(CO)C[C@H]23)c(=O)[nH]1 [Compound 21]  HSV-2 (herpes simplex type 2)              1

---

Parameter: CC50. Scope: all listed entries.
- protocolDescription: Cytotoxicity in host cells / stationary cells (HFF)
- Assay type: cell-based, human
- conditionLabel: human, hff cells, Table 5; host cell not given
readoutName: CC50

> print(dat)
                                   compound  recordedvalue
1  Nc1ncnc2c1ncn2[C@H]1C[C@H](O)[C@]2(CO)C[C@H]12    > 100 µg/mL
2  Nc1nc2c(ncn2[C@H]2C[C@H](O)[C@]3(CO)C[C@H]23)c(=O)[nH]1    > 100 µg/mL
3  Nc1ncnc2c1ncn2[C@@]12C[C@H](O)[C@@H](CO)[C@@H]1C2 [(S)-DMC-A, reference compound]    > 100 µg/mL
4  O=c1ccn([C@H]2C[C@H](O)[C@]3(CO)C[C@H]23)c(=O)[nH]1    > 100 µg/mL
5  O=c1ccn([C@@]23C[C@H](O)[C@@H](CO)[C@@H]2C3)c(=O)[nH]1 [(S)-DMC-U, reference compound]     59.1 µg/mL

---

Parameter: CC50. Scope: all listed entries.
- protocolDescription: Cytotoxicity in host cells / stationary cells (HFF)
- Format: cell-based, human
- conditionLabel: human, hff cells, Table 4; HSV-1 and HSV-2 lines; host cell not given
readoutName: CC50

> print(dat)
                                   compound  readoutname  recordedvalue
1  Cc1cn([C@@H]2C[C@H](CO)[C@@H](O)C2)c(=O)[nH]c1=O (relative stereo) [Compound 26, (±)-(carba-T), reference compound]         CC50     > 10 µg/mL
2  Cc1cn([C@H]2C[C@H](O)[C@]3(CO)C[C@H]23)c(=O)[nH]c1=O         CC50     > 20 µg/mL

---

- Tested on: HSV-1 (herpes simplex type 1)
- protocolDescription: microbe, parasite or virus in culture
Parameter: SI (CC50/EC50). Scope: all listed entries.
readoutName: SI (CC50/EC50)

> print(dat)
                                   compound  recordedvalue
1  Nc1nc2c(ncn2[C@@]23C[C@H](O)[C@@H](CO)[C@@H]2C3)c(=O)[nH]1 [(S)-DMC-G, reference compound]          < 3.7
2  Nc1ncnc2c1ncn2[C@H]1C[C@H](O)[C@]2(CO)C[C@H]12          > 1.4
3  Nc1nc2c(ncn2[C@H]2C[C@H](O)[C@]3(CO)C[C@H]23)c(=O)[nH]1           > 25
4  Cc1cn([C@@H]2C[C@H](CO)[C@@H](O)C2)c(=O)[nH]c1=O (relative stereo) [Compound 26, (±)-(carba-T), reference compound]              1

---

- Test system: HSV-1 (herpes simplex type 1)
- protocolDescription: microbe, parasite or virus in culture
- conditionLabel: Human alphaherpesvirus 1, Table 5; HSV-1
Parameter: EC50. Scope: all listed entries.
readoutName: EC50

> print(dat)
                                   compound  readoutname  recordedvalue
1  Nc1nc2c(ncn2[C@@]23C[C@H](O)[C@@H](CO)[C@@H]2C3)c(=O)[nH]1 [(S)-DMC-G, reference compound]         EC50     > 20 µg/mL
2  O=c1ccn([C@H]2C[C@H](O)[C@]3(CO)C[C@H]23)c(=O)[nH]1 [Compound 21]         EC50    > 100 µg/mL
3  O=c1ccn([C@@]23C[C@H](O)[C@@H](CO)[C@@H]2C3)c(=O)[nH]1 [(S)-DMC-U, reference compound]         EC50     > 20 µg/mL
4  Nc1ncnc2c1ncn2[C@@]12C[C@H](O)[C@@H](CO)[C@@H]1C2 [(S)-DMC-A, reference compound]         EC50    > 100 µg/mL

---

- protocolDescription: Cytotoxicity in EBV host cells (Daudi)
- Assay type: cell-based
- conditionLabel: human, Table 4, EBV line, host cell not given
readoutName: CC50

> print(dat)
                                   compound  recordedvalue
1  Cc1cn([C@H]2C[C@H](O)[C@]3(CO)C[C@H]23)c(=O)[nH]c1=O    > 100 µg/mL

---

Parameter: EC50. Scope: all listed entries.
- Tested on: HSV-1 (herpes simplex type 1)
- protocolDescription: microbe, parasite or virus in culture
- conditionLabel: Human alphaherpesvirus 1, Table 5; HSV-1
readoutName: EC50 (µg/mL)

> print(dat)
                                   molecule  unitdescriptor  rel  recordedvalue
1  Nc1ccn([C@@]23C[C@H](O)[C@@H](CO)[C@@H]2C3)c(=O)n1 [(S)-DMC-C, reference compound]           µg/mL    >              4
2  Nc1ccn([C@H]2C[C@H](O)[C@]3(CO)C[C@H]23)c(=O)n1           µg/mL    =           0.14
3  Nc1nc2c(ncn2[C@H]2C[C@H](O)[C@]3(CO)C[C@H]23)c(=O)[nH]1           µg/mL    =              4
4  Nc1ncnc2c1ncn2[C@H]1C[C@H](O)[C@]2(CO)C[C@H]12           µg/mL    =             72

---

- protocolDescription: Adenosine deaminase studies (deamination by ADA)
- Format: biochemical
- conditionLabel: adenosine deaminase; 50 μM compound; 1.0 unit ADA; 37° C., pH 7.1; read-out: t1/2 of deamination
readoutName: half-life at 50 µM (min)

> print(dat)
                                   compound         readoutname  unitdescriptor  recordedvalue
1  Nc1ncnc2c1ncn2[C@H]1C[C@H](O)[C@]2(CO)C[C@H]12  half-life at 50 µM             min            3.2

---

Parameter: SI (CC50/EC50). Scope: all listed entries.
- System: HCMV (human cytomegalovirus)
- protocolDescription: microbe, parasite or virus in culture
- Type: cell-based
readoutName: SI (CC50/EC50)

> print(dat)
                                   compound  recordedvalue
1  O=c1ccn([C@H]2C[C@H](O)[C@]3(CO)C[C@H]23)c(=O)[nH]1              1
2  Nc1nc2c(ncn2[C@@]23C[C@H](O)[C@@H](CO)[C@@H]2C3)c(=O)[nH]1 [(S)-DMC-G, reference compound]          < 2.3
3  Nc1ccn([C@H]2C[C@H](O)[C@]3(CO)C[C@H]23)c(=O)n1          < 2.2
4  Nc1ncnc2c1ncn2[C@H]1C[C@H](O)[C@]2(CO)C[C@H]12         > 32.2
5  Nc1ncnc2c1ncn2[C@@]12C[C@H](O)[C@@H](CO)[C@@H]1C2 [(S)-DMC-A, reference compound]         > 15.6
6  Nc1ccn([C@@]23C[C@H](O)[C@@H](CO)[C@@H]2C3)c(=O)n1 [(S)-DMC-C, reference compound]          > 1.1
7  Nc1nc2c(ncn2[C@H]2C[C@H](O)[C@]3(CO)C[C@H]23)c(=O)[nH]1          < 3.2
8  O=c1ccn([C@@]23C[C@H](O)[C@@H](CO)[C@@H]2C3)c(=O)[nH]1 [(S)-DMC-U, reference compound]              1

---

Parameter: SI (CC50/EC50). Scope: all listed entries.
- Tested on: HSV-2 (herpes simplex type 2)
- protocolDescription: microbe, parasite or virus in culture
readoutName: SI (CC50/EC50)

> print(dat)
                                   compound     readoutname  recordedvalue
1  Nc1nc2c(ncn2[C@H]2C[C@H](O)[C@]3(CO)C[C@H]23)c(=O)[nH]1  SI (CC50/EC50)         > 10.1
2  Nc1ccn([C@H]2C[C@H](O)[C@]3(CO)C[C@H]23)c(=O)n1  SI (CC50/EC50)          < 4.8
3  Nc1ccn([C@@]23C[C@H](O)[C@@H](CO)[C@@H]2C3)c(=O)n1 [(S)-DMC-C, reference compound]  SI (CC50/EC50)          < 3.7
4  Cc1cn([C@@]23C[C@H](O)[C@@H](CO)[C@@H]2C3)c(=O)[nH]c1=O [Compound 25, (S)-methanocarba-T, reference compound]  SI (CC50/EC50)              1
5  Nc1ncnc2c1ncn2[C@@]12C[C@H](O)[C@@H](CO)[C@@H]1C2 [(S)-DMC-A, reference compound]  SI (CC50/EC50)              1
6  Cc1cn([C@@H]2C[C@H](CO)[C@@H](O)C2)c(=O)[nH]c1=O (relative stereo) [Compound 26, (±)-(carba-T), reference compound]  SI (CC50/EC50)              1
7  O=c1ccn([C@@]23C[C@H](O)[C@@H](CO)[C@@H]2C3)c(=O)[nH]1 [(S)-DMC-U, reference compound]  SI (CC50/EC50)          < 3.0
